Record form. Attribute: EC50. Fill in for each entry.
system: M-07e cells; experiment: M-07e cellular assay (SCF-mediated cell proliferation); format: cell-based; details: Homo sapiens, 72 hours, CellTiter Glo

# EC50 of Cc1ccc(-c2noc([C@H]3C[C@@H]3F)n2)cc1NC(=O)c1cnn2ccc(N3CCN(C(=O)C(F)(F)F)[C@H](C)C3)cc12 = < 100 nM

Just so you know, measured EC50 for Cc1ccc(-c2ncc(C3CC3)cn2)cc1NC(=O)c1cnn2cc(-c3cn(CC(C)(C)O)nn3)ccc12 came out at < 100 nM

Item: Cc1ncc(-c2noc([C@H]3C[C@@H](C(F)(F)F)C3)n2)cc1NC(=O)c1cnn2cc(-c3cn(C(F)F)nn3)ccc12 | EC50: < 100 nM

====

tested on: M-07e cells; assay: M-07e cellular assay (SCF-mediated cell proliferation); type: cell-based; settings: Homo sapiens, 72 hours, CellTiter Glo
QUANTITY_NAME: EC50

The compound listed as Cc1ccc(-c2noc([C@H]3C[C@@H]3F)n2)cc1NC(=O)c1cnn2ccc(N3CC(CO)(CO)C3)cc12 [Example 241-3] shows EC50 equal to < 100 nM

According to the records, this compound Cc1ccc(-c2ncc3c(ccn3C(F)F)n2)cc1NC(=O)c1cnn2ccc(N3CC4(C3)CC(O)(C(F)F)C4)cc12 [Example 319] displays EC50 of < 100 nM

EC50 reading for Cc1ccc(-c2ncc(OC(F)(F)F)cn2)cc1NC(=O)c1cnn2ccc(N3CC4(C3)CC(O)(C(F)F)C4)cc12 [Example 315] : < 100 nM

EC50 reported for this compound Cc1ccc(-c2noc([C@H]3C[C@@H]3F)n2)cc1NC(=O)c1cnn2ccc(-c3cnc(C4CC4)nc3)cc12 [Example 160] : < 100 nM

Looking up Cc1ccc(-c2noc([C@H]3C[C@@H]3F)n2)cc1NC(=O)c1cnn2ccc(-c3nn[nH]n3)cc12 [Example 129] , I found its EC50 recorded as > 1000 nM

Reported EC50 for Cc1ccc(-c2noc([C@H]3C[C@@H]3F)n2)cc1NC(=O)c1cnn2ccc(N3C[C@@H](F)[C@@H]3C)cc12 [Example 224] was < 100 nM

Query Cc1ccc(-c2noc([C@H]3C[C@@H]3F)n2)cc1NC(=O)c1cnn2ccc(N3CC4(CN(CC(F)(F)F)C4)C3)cc12 [Example 177] yields EC50 of < 100 nM

The recorded EC50 for entry Cc1ccc(-c2noc([C@H]3C[C@@H]3F)n2)cc1NC(=O)c1cnn2cc(-c3cn(C(F)(F)C(=O)O)nn3)ccc12 [Example 132-4] equals > 1000 nM

Value of EC50 reported for the compound Cc1ccc(-c2noc([C@H]3C[C@@H]3F)n2)cc1NC(=O)c1cnn2ccc(N3CCS(=O)(=O)CC3)cc12 [Example 44] is < 100 nM

The recorded EC50 for entry Cc1ccc(-c2noc([C@H]3C[C@@H]3F)n2)nc1NC(=O)c1cnn2ccc(N3CC4(COC4)C3)cc12 [Example 261] equals 100 to 1000 nM

Lab book: EC50 of Cc1ccc(-c2noc([C@H]3C[C@@H]3F)n2)cc1NC(=O)c1cnc(-c2ccc(F)c3[nH]ncc23)o1 [Example 308-44] noted as 100 to 1000 nM

Measured EC50 of CNS(=O)(=O)c1cccc(-c2ncc(C(=O)Nc3cc(-c4noc([C@H]5C[C@@H]5F)n4)ccc3C)o2)c1 [Example 308-30] : 100 to 1000 nM

EC50 reported for this compound Cc1ccc(-c2noc([C@H]3C[C@@H]3F)n2)cc1NC(=O)c1cnc(-c2cnc(N)nc2)o1 [Example 308-64] : > 1000 nM

Entry Cc1ncc(-c2noc([C@H]3C[C@@](C)(O)C3)n2)cc1NC(=O)c1cnn2ccc(N3CC4(C3)CC(O)(C(F)F)C4)cc12 [Example 281-36] , EC50 reported as 100 to 1000 nM

====

target: Recombinant human c-KIT kinase (Homo sapiens (Human), UniProt P10721); assay: c-KIT kinase chemiluminescence assay (ADP-Glo); details: ATP 50 μM
Sequence (P10721 26-976): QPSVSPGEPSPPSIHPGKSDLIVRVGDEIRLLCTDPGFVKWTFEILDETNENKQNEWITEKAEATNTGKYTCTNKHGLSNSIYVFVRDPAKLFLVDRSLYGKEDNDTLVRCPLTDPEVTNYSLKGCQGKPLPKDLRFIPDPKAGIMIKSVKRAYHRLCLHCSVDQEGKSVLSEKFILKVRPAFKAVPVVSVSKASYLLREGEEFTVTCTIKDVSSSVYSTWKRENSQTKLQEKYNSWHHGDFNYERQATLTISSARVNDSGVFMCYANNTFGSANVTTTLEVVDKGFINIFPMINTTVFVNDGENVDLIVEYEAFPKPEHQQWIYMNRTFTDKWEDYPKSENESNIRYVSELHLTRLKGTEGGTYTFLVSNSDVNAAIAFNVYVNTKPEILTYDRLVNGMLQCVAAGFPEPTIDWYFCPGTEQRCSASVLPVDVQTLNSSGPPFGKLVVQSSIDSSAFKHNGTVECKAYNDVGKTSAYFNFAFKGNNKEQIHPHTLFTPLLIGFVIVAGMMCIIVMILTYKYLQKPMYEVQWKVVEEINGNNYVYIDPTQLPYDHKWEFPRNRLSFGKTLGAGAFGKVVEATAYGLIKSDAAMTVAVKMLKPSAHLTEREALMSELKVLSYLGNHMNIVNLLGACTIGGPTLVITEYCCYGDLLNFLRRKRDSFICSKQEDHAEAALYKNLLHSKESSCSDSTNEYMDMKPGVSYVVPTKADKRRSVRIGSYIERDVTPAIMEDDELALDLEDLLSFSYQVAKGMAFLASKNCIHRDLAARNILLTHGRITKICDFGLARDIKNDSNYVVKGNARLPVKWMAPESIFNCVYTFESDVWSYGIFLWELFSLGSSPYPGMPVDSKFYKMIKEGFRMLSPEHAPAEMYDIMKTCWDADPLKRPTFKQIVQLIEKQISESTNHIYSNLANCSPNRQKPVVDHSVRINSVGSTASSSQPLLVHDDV
QUANTITY_NAME: IC50

Lab note: Cc1ccc(-c2noc([C@H]3C[C@@H]3F)n2)cc1NC(=O)c1cnc(-c2cccc3[nH]ccc23)o1 gave IC50 of < 100 nM

In plain terms, Cc1ccc(-c2noc([C@H]3C[C@@H]3F)n2)cc1NC(=O)c1cnn2ccc(N3CCN(C(=O)C(F)(F)F)[C@H](C)C3)cc12 has a documented IC50 of < 100 nM

Measured IC50 of Cc1ccc(-c2ccc(C3CC3)cn2)cc1NC(=O)c1cnn2ccc(N3CC4(C3)CC(O)(C(F)F)C4)cc12 : < 100 nM

# IC50 (molecule: Cc1ccc(-c2noc([C@H]3C[C@@H]3F)n2)cc1NC(=O)c1cnn(-c2ccccc2)c1C ) is > 1000 nM

Form: molecule = Cc1ncc(-c2nnn(C3CC(F)(F)C3)n2)cc1NC(=O)c1cnn2ccc(N3CC4(C3)CC(O)(C(F)F)C4)cc12 ; IC50 = 100 to 1000 nM

// sample Cc1ccc(-c2noc([C@H]3C[C@@H]3F)n2)cc1NC(=O)c1cnn2cc(Cl)c(-c3c(C)nn(C(F)F)c3C)cc12 , its IC50 was > 1000 nM

Looking up Cc1ccc(-c2noc([C@H]3C[C@@H]3F)n2)cc1NC(=O)c1cnn2ccc(-c3cnc(N4CC(F)(F)C4)cc3C)cc12 , I found its IC50 recorded as < 100 nM

According to the records, this molecule Cc1ccc(-c2noc([C@H]3C[C@@H]3F)n2)cc1NC(=O)c1ccnc2cnccc12 displays IC50 of > 1000 nM

The molecule listed as Cc1ncc(-c2noc(N3CC(F)(F)C3)n2)cc1NC(=O)c1cnn2ccc(N3CC4(COC4)C3)cc12 has a reported IC50 of 100 to 1000 nM

The value of IC50 measured for the molecule Cc1ccc(-c2noc([C@H]3C[C@@H]3F)n2)cc1NC(=O)c1cnc(-c2cccc(NS(C)(=O)=O)c2)o1 turned out to be 100 to 1000 nM

Per the records, this molecule ( [2H]C([2H])([2H])n1nnnc1-c1cnc(C)c(NC(=O)c2cnn3ccc(N4CC5(C4)CC(O)(C(F)F)C5)cc23)c1 ) has IC50 equal to > 1000 nM

Per the record, Cc1ccc(-c2noc(C3CN(C(=O)C(F)(F)F)C3)n2)cc1NC(=O)c1cnn2ccc(N3CC4(COC4)C3)cc12 has IC50 of 100 to 1000 nM

get_value(item= Cc1ccc(-c2noc([C@H]3C[C@@H]3F)n2)cc1NC(=O)c1cnn2ccccc12 , readout=IC50) returns < 100 nM

The molecule Cc1ccc(-c2noc([C@H]3C[C@@H]3F)n2)cc1NC(=O)c1cnn2ccc(-c3ccc(N4CC(F)(F)C4)nc3C)cc12 showed IC50 equal to < 100 nM

====

molecular target: Recombinant human c-KIT kinase (Homo sapiens (Human), UniProt P10721); assay: c-KIT kinase chemiluminescence assay (ADP-Glo); settings: ATP 50 μM
For each entry below, report its IC50 value.

// IC50 lookup, compound = Cc1ccc(-c2noc([C@H]3C[C@@H]3F)n2)cc1NC(=O)c1cnc2n1CCc1ccccc1-2 , result: < 100 nM

Summary for this compound, Cc1ccc(-c2noc(C3CN(C(=O)[C@H]4C[C@@H]4F)C3)n2)cc1NC(=O)c1cnn2ccc(N3CC4(COC4)C3)cc12 : IC50 is 100 to 1000 nM

Consider Cc1ccc(-c2noc([C@H]3C[C@@H](OC(F)(F)F)C3)n2)cc1NC(=O)c1cnn2ccc(N3CC4(CN(CC(F)F)C4)C3)cc12 . Its measured IC50 is < 100 nM

Note to self: IC50 recorded for Cc1cnc(-c2ccn3ncc(C(=O)Nc4cc(-c5noc([C@H]6C[C@@H]6F)n5)ccc4C)c3c2)c(C)n1 was < 100 nM

Record Cc1ccc(-c2noc([C@H]3C[C@@H]3F)n2)cc1NC(=O)c1cn2ccsc2n1 , field IC50: > 1000 nM

response.value for CN[C@H]1CCN(c2ccn3ncc(C(=O)Nc4cc(-c5noc([C@H]6C[C@@H]6F)n5)ccc4C)c3c2)C1 (field: IC50) = < 100 nM

// IC50 value for Cc1ncc(-c2noc([C@H]3C[C@@H](OC(F)(F)F)C3)n2)cc1NC(=O)c1cnn2cc(-c3cn(CC(C)(C)O)nn3)ccc12 : 100 to 1000 nM

====

biological target: Recombinant human c-KIT kinase (Homo sapiens (Human), UniProt P10721); assay: c-KIT kinase chemiluminescence assay (ADP-Glo); details: ATP 50 μM
Assign IC50 to each entry below.

Recorded result, COC(=O)N1CC(c2nc(-c3cc(NC(=O)c4cnn5ccc(N6CC7(C6)CC(O)(C(F)F)C7)cc45)c(C)cc3F)no2)C1 , IC50: < 100 nM

The reported IC50 of the compound Cc1ccc(-c2noc([C@H]3C[C@@H]3F)n2)cc1NC(=O)c1cnn2cc(-c3cn(CC4(C)COC4)nn3)ccc12 was < 100 nM

Cc1ccc(-c2noc([C@H]3C[C@@H]3F)n2)cc1NC(=O)c1cnn2ccc(N3C[C@H]4C[C@@H]3CO4)cc12 yielded IC50 of < 100 nM

For reference, reported IC50 for Cc1ccc(-c2noc(C3CN(C(=O)C4CC(F)(F)C4)C3)n2)cc1NC(=O)c1cnn2ccc(N3CC4(COC4)C3)cc12 stands at > 1000 nM

IC50 in this record for Cc1ccc(-c2noc([C@H]3C[C@@H]3F)n2)cc1NC(=O)c1cnn2cc(F)c(-c3c(C)nn(C(F)F)c3C)cc12 : > 1000 nM

IC50 in this record for COC(=O)N1CC(F)(c2nc(-c3cnc(C)c(NC(=O)c4cnn5ccc(N6CC7(C6)CC(O)(C(F)F)C7)cc45)c3)no2)C1 : > 1000 nM
